Source: PubChem BioAssay (EPA / NIEHS)

Read-out: Interleukin-8 (IL8), CXCL8 (gene 3576)
Assay Explanation: BSK_hDFCGF_IL8: BioMAP Diversity Plus: hDFCGF Assay for Interleukin-8 (IL8) Biomarker Activity (AID 2283058)
Condition: primary human foreskin fibroblasts; actives raise or lower the signal
The source made the active and inactive calls. Rule for the calls: active = hit-call score of the fitted dose curve at least 0.9, where 1 is the maximum; inactive = score below 0.9.
Outcome codes: true (active), false (inactive)

Molecule Smiles: CCN(CC)CCOc1ccc(C(=C(Cl)c2ccccc2)c2ccccc2)cc1
Category Label: true

Molecule Smiles: C=CCc1ccc(OC)c(OC)c1
Category Label: false

Molecule Smiles: c1ccc2occc2c1
Category Label: false

Molecule Smiles: CCc1cc(C2=C(C(=O)O)N(c3ccccc3C(F)(F)F)S(=O)(=O)c3ccccc32)cc2c1OCO2
Category Label: false

Molecule Smiles: O=C(O)c1[nH]n(-c2ccc(S(=O)(=O)O)cc2)c(=O)c1N=Nc1ccc(S(=O)(=O)O)cc1
Category Label: false

Molecule Smiles: CO[C@@H]1COCC[C@@H]1N[C@@H]1CC[C@@](C(=O)N2CCc3ncc(C(F)(F)F)cc3C2)(C(C)C)C1
Category Label: false

====

Assay Explanation: BSK_3C_Proliferation: Cell Proliferation Assessment in the BioMAP Diversity Plus: 3C Assay (AID 2283006)
Condition: primary human endothelial cells (HUVEC)
The source made the active and inactive calls. Rule for the calls: active = hit-call score of the fitted dose curve at least 0.9, where 1 is the maximum; inactive = score below 0.9.
Outcome codes: active, inactive

Molecule: CCCCCCC(C=O)=Cc1ccccc1
Category Label: active
//
Molecule: CSc1ccc(Oc2ccc(S(N)(=O)=O)cc2CN(C)C)cc1C
Category Label: active
//
Molecule: CC(=O)S[C@H](C(=O)N[C@H]1Cc2ccccc2[C@H]2CCC[C@@H](C(=O)O)N2C1=O)C(C)C
Category Label: inactive
//
Molecule: CC(=O)[C@@]1(O)CC[C@H]2[C@@H]3CCC4=CC(=O)CC[C@]4(C)[C@H]3CC[C@@]21C
Category Label: inactive
//
Molecule: O=C(O)CN(CC(=O)O)CC(=O)O
Category Label: inactive
//
Molecule: CC(=O)O[C@]1(C(C)=O)CC[C@H]2[C@@H]3C=C(Cl)C4=CC(=O)[C@@H]5C[C@@H]5[C@]4(C)[C@H]3CC[C@@]21C
Category Label: active
//
Molecule: O=C(Oc1ccccc1)c1cccc(C(=O)Oc2ccccc2)c1
Category Label: active
//
Molecule: NCCOCCOCCN
Category Label: inactive
//
Molecule: CCCCC(CC)COP(=O)(OCC(CC)CCCC)OCC(CC)CCCC (stereo not given)
Category Label: active
//
Molecule: Cc1cc(SC2=C(O)C[C@@](CCc3ccc(N)cc3)(C(C)C)OC2=O)c(C(C)(C)C)cc1CO
Category Label: inactive

====

Read-out: Glutathione S-transferase M3 (GSTM3), GSTM3 (gene 2947)
Assay Explanation: LTEA_HepaRG_GSTM3: Life Technologies and Expression Analysis (LTEA) Assay for Glutathione S-transferase M3 (GSTM3) using HepaRG (AID 2283501)
Condition: mRNA level, 48 h; actives raise or lower the signal
Calls of active or inactive are those of the source. How the source made its calls: active means hit-call score of the fitted dose curve at least 0.9, where 1 is the maximum; inactive means score below 0.9.
Outcome codes: TRUE (active), FALSE (inactive)

Compound: O=C(O)CN(CC(=O)O)CC(=O)O
Category Label: FALSE
//
Compound: Oc1ccccc1O
Category Label: FALSE
//
Compound: CC(C)c1cccc(C(C)C)c1
Category Label: FALSE
//
Compound: CC(C)c1cccc(C(C)C)c1NC(=O)NS(=O)(=O)c1cc(C(C)(C)O)co1
Category Label: FALSE
//
Compound: CCCCOC(=O)CCCCC(=O)OCCCC
Category Label: FALSE
//
Compound: O=C1NC(=O)C(c2ccccc2)(c2ccccc2)N1
Category Label: FALSE
//
Compound: O=C(O)c1[nH]n(-c2ccc(S(=O)(=O)O)cc2)c(=O)c1N=Nc1ccc(S(=O)(=O)O)cc1
Category Label: FALSE
//
Compound: NC1CCCCC1
Category Label: FALSE
//
Compound: CC(N)=O
Category Label: FALSE
//
Compound: c1ccc2occc2c1
Category Label: FALSE
//
Compound: CC(=O)OC1CC(C)OC(C)O1 (stereo unspecified)
Category Label: FALSE
//
Compound: O=C(N[C@@H](c1ccccc1)[C@@H]1CCCCN1)c1cccc(C(F)(F)F)c1Cl
Category Label: FALSE
//
Compound: COC(=O)[C@H]1[C@H]2C[C@@H]3c4[nH]c5cc(OC)ccc5c4CCN3C[C@H]2C[C@@H](OC(=O)c2cc(OC)c(OC)c(OC)c2)[C@@H]1OC
Category Label: TRUE
//
Compound: CC(C)(O)c1ccc(CNC(=O)c2cccnc2Oc2ccc(F)cc2)cc1
Category Label: FALSE
//
Compound: C=CCCCCCCCCCCCC
Category Label: FALSE
//
Compound: CO[C@@H]1COCC[C@@H]1N[C@@H]1CC[C@@](C(=O)N2CCc3ncc(C(F)(F)F)cc3C2)(C(C)C)C1
Category Label: FALSE
//
Compound: Oc1ccc(O)cc1
Category Label: FALSE
//
Compound: Cc1ccc(-c2cc(C(F)(F)F)nn2-c2ccc(S(N)(=O)=O)cc2)cc1
Category Label: FALSE
//
Compound: CCCCc1nc2cccnc2n1Cc1ccc(-c2ccccc2-c2nnn[nH]2)cc1
Category Label: FALSE
//
Compound: N[C@@H](Cc1c[nH]c2ccccc12)C(=O)O
Category Label: FALSE
//
Compound: O=C1c2c(O)cccc2Cc2cccc(O)c21
Category Label: FALSE
//
Compound: COc1ccc(OC(F)(F)F)cc1CN[C@H]1CCCN[C@H]1c1ccccc1
Category Label: FALSE
//
Compound: C#CC(O)C(CC)CCCC (stereo unspecified)
Category Label: FALSE
//
Compound: CCN(CC)CCOc1ccc(C(=C(Cl)c2ccccc2)c2ccccc2)cc1
Category Label: FALSE
//
Compound: O=NO
Category Label: FALSE
//
Compound: OCC(CO)n1cnc(-c2ccc(F)cc2)c1-c1ccnc(Oc2ccccc2)n1
Category Label: FALSE
